Reference for the values: paper PMC6581936

target_or_test_system: CYP1A2 (Homo sapiens, UniProt P05177)
Sequence (P05177 whole entry): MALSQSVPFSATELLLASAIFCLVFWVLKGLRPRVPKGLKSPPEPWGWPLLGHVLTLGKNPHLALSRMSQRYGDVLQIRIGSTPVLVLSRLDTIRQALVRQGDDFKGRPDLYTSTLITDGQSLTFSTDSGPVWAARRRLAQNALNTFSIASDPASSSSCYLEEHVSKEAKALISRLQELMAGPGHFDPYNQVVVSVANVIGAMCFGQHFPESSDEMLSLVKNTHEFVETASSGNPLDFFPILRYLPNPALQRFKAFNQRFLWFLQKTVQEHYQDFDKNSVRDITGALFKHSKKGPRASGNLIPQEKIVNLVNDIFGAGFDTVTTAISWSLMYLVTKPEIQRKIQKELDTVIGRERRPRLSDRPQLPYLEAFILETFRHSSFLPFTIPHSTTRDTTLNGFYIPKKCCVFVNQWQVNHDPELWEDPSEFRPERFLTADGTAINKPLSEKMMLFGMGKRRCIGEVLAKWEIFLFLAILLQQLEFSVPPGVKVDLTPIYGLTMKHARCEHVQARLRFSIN
protocol: CYP1A2 inhibition in HLM
Format: biochemical
experimental_parameters: average values from table S1; read-out: IC50,app HLM
measurement_label: IC50 (mM)
Please state the figure in mM; there is no need to write the unit.

(Q) Please give the measured IC50 for this compound: CCn1cc(C(=O)O)c(=O)c2cc(F)c(N3CCNCC3)nc21 [Enoxacin]
(A) 2.14

====

protocol: Steady-state cellular uptake (Kp) in suspended HH
Assay type: in vitro ADME
experimental_parameters: human, suspended human hepatocytes, 0.5 μM, reference compounds
measurement_label: Kp at 0.5 μM
I'd appreciate a reply containing only the number, no unit.

CCn1cc(C(=O)O)c(=O)c2cc(F)c(N3CCNCC3)nc21 [Enoxacin]: 7.4

(Q) Please give the measured Kp at 0.5 μM for this compound: CC[C@H]1OC(=O)[C@H](C)[C@@H](O[C@H]2C[C@@](C)(OC)[C@@H](O)[C@H](C)O2)[C@H](C)[C@@H](O[C@@H]2O[C@H](C)C[C@H](N(C)C)[C@H]2O)[C@](C)(OC)C[C@@H](C)C(=O)[C@H](C)[C@@H](O)[C@]1(C)O [Clarithromycin]
(A) 25.9
